// data source = patent US11352349B2

Test system: S. aureus ATCC 29213
Experiment: MIC by broth microdilution (CLSI), quality control strain S. aureus ATCC 29213
Format: cell-based, Staphylococcus aureus
Details: Staphylococcus aureus, ATCC29213, S. aureus ATCC 29213; multiple values when multiple MIC assays were conducted
measured.parameter: MIC

These recorded examples may help you get a feel for the data.
[
  {
    "compound": "COc1ccc2nccc(CC[C@H]3OC[C@H](NCc4ccccc4Cl)CO3)c2c1",
    "measured.parameter": "MIC",
    "measured.value": "> 64 µg/mL"
  },
  {
    "compound": "COc1ccc2nccc(CC[C@H]3OC[C@H](NCc4ccc(Cl)cc4)CO3)c2c1",
    "measured.parameter": "MIC",
    "measured.value": "1 µg/mL"
  }
]

Prompt: Recorded MIC of COc1ccc2ncc(F)c(C(O)C[C@H]3OC[C@H](NCc4ccc5c(c4)OCCO5)CO3)c2c1 (stereo partly drawn) , please.
Response: 0.125 µg/mL

Prompt: Same question, COc1ccc2nccc(CC[C@H]3OC[C@H](NCc4ccc(C#N)cc4)CO3)c2c1 this time
Response: > 64 µg/mL

Prompt: Same question, COc1ccc2nccc(CC[C@H]3OC[C@H](NCc4c(F)cccc4F)CO3)c2c1 this time
Response: > 64 µg/mL

Prompt: Same question, COc1ccc2nccc(CC[C@H]3OC[C@H](NCc4cccs4)CO3)c2c1 this time
Response: > 64 µg/mL
